target: T1, recombinant BACE1 (BACE1 extracellular domain, R&D Systems Cat#931-AS) (UniProt P56817 22-457); test: SPR Biacore
T1 construct: extracellular domain; also called BACE1 extracellular domain protein
T1 sequence (P56817 22-457): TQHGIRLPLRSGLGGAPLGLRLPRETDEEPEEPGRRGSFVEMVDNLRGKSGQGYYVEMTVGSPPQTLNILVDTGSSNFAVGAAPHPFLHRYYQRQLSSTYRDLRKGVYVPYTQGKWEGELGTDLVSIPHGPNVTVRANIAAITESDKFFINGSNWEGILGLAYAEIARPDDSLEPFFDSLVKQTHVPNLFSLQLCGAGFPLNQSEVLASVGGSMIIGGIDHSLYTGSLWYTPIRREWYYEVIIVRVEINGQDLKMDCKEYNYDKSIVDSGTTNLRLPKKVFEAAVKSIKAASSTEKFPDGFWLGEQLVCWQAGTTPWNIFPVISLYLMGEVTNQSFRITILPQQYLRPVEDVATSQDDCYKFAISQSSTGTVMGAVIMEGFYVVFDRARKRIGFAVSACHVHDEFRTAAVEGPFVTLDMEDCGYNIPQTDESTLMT
metric: kon (M⁻¹ s⁻¹)
Form entry: value (M⁻¹ s⁻¹) — number only.

binder: 2H8.10 (antibody, human IgG1, V domains shown, human IgG1/kappa; also called 2H8_HCvar4 + 2H8_LCvar2) VH: EIQLQQSGTELVRPGTSVKLSCKASGYTFTNYWMHWVKQRPGQGLEWIGMIDPSAAYTNYNQNFKGKATLTVDTSSGTAYMQLSSLTSEDSAVYYCARSGVAFPYWGQGTTVTVSS VL: DIVMTQSQKFMSTSVGDRVSVTCKASQNVGTNVAWYQQKPGQSPKALIYSASHRYSGVPDRFTGSGSGTDFTLTISNVQSEDLAEYFCQQYNSYMYTFGGGTKLEIK
metric: kon
value.reported: 14200
--
binder: 2H8.08 (antibody, human IgG1, V domains shown, human IgG1/kappa; also called 2H8_HCvar2 + 2H8_LCvar2) VH: EVQLQQPGTELVRPGTSVKLSCKASGYTFTNYWMHWIKQRPGQGLEWIGMIDPSDTYTKFNQNFKGKATLTVDTSSSTAYMQLNSLTSEDSAVYYCARSGVAFPYWGQGTTVTVSS VL: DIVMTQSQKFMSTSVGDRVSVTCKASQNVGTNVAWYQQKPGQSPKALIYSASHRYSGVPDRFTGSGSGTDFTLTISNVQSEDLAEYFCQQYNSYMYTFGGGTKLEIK
metric: kon
value.reported: 14300

Q: Would you kindly share the measured kon for 2H8 (antibody, human IgG1, V domains shown, chimeric, human IgG1/kappa; also called Clone 2H8; 2H8.01) VH: EVQLQQSGPELVKPGASVKLSCKASGYTFTNFWIHWLKQRPGQGLEWIGMIDPSDSYTKYNQKFKAKATLTVDTSSSTTYMHLSSLTSEDSAVYYCARSGVAFPYWGQRTLVTVSA VL: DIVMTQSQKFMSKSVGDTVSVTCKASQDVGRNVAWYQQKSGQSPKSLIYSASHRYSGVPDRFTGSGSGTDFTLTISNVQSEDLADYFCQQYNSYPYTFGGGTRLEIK ?
Ans: 21400

Data origin, for the record: patent US20210070881A1
